# Target Entity: NaV1.7 (Rattus norvegicus), O08562
# Sequence (O08562 whole entry): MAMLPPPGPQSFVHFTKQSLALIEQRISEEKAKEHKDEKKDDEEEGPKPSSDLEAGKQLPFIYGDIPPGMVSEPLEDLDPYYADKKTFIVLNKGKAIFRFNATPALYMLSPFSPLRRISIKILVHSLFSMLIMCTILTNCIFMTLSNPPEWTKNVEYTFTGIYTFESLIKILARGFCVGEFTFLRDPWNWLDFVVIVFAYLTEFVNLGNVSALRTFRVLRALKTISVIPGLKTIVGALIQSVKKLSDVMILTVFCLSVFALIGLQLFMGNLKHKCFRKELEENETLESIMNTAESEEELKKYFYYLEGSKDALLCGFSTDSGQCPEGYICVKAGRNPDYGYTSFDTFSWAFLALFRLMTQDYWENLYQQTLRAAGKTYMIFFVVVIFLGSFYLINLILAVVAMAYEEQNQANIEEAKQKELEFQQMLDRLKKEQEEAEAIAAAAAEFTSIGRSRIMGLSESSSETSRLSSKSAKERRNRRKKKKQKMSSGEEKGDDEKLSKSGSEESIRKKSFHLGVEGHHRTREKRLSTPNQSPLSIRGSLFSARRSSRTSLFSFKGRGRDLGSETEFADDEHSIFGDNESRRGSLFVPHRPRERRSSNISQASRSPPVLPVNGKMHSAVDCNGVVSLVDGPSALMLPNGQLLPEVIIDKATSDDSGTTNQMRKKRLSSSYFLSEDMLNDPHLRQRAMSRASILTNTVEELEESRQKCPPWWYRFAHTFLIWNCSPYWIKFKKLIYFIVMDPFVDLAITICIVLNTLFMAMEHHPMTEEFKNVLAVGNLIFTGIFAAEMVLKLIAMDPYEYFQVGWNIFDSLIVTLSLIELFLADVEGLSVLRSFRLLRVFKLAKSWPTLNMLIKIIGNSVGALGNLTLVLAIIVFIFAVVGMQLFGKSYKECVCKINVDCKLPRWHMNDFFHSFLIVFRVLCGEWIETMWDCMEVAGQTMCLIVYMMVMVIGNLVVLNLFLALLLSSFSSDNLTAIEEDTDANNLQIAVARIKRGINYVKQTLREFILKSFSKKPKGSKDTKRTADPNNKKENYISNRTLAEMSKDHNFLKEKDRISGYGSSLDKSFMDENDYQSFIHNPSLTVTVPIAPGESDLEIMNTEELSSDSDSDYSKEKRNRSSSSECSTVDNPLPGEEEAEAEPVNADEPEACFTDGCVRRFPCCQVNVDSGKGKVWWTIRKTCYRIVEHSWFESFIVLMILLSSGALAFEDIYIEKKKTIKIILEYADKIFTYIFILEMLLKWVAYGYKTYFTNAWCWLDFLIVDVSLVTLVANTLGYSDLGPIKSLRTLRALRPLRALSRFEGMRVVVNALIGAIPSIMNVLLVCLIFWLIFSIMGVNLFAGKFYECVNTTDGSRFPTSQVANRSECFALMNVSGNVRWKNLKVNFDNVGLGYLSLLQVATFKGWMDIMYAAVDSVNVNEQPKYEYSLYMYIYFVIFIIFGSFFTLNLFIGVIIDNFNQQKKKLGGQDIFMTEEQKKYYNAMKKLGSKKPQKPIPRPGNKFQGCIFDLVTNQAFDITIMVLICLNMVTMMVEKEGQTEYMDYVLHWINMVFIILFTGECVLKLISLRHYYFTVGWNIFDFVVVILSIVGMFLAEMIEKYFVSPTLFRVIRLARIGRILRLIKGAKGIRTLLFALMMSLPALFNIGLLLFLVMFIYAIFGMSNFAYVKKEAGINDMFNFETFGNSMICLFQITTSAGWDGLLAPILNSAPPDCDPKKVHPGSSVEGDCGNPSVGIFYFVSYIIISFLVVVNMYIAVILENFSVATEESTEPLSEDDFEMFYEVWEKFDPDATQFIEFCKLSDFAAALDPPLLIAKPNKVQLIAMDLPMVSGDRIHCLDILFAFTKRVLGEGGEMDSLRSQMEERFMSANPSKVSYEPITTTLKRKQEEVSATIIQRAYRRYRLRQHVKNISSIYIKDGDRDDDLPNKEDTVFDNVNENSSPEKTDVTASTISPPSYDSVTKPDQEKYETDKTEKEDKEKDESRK
# Test Context: modification not given
Readout Name: Kd (nM)
Enter your answer as a number in nM; do not include the unit.

What value of Kd has been reported for the following binder? CCNCSSKWCRDHSRCC [μ-conotoxin KIIIA-P2, P0C195]
1570
